B1: library; a variant is named by its letters at N, in order (parent)
chain: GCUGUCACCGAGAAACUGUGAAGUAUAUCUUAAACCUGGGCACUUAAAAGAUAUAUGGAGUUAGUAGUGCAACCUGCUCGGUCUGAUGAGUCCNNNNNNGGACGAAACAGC

- Variants of: B1
- PROTOCOL: FACS-Seq fitted mean relative fluorescence mCherry/BFP without ligand (log10 relative fluorescence); HEK293T; ligand: cyclic di-GMP (c-di-GMP-II aptamer); higher = higher reporter protein expression
- STUDY CONDITIONS: ligand present: no
Classes are defined on FACS-Seq fitted mean (log10) with ranges 1: < -0.5; 2: ≥ -0.5 and < -0.2; 3: ≥ -0.2

Illustrative cases are given below, each with its answer.
GCUGUCACCGAGAAACUGUGAAGUAUAUCUUAAACCUGGGCACUUAAAAGAUAUAUGGAGUUAGUAGUGCAACCUGCUCGGUCUGAUGAGUCCGAGCUGGGACGAAACAGC [GAGCUG] | 3
GCUGUCACCGAGAAACUGUGAAGUAUAUCUUAAACCUGGGCACUUAAAAGAUAUAUGGAGUUAGUAGUGCAACCUGCUCGGUCUGAUGAGUCCAUGUGUGGACGAAACAGC [AUGUGU] | 2
GCUGUCACCGAGAAACUGUGAAGUAUAUCUUAAACCUGGGCACUUAAAAGAUAUAUGGAGUUAGUAGUGCAACCUGCUCGGUCUGAUGAGUCCGAGCGCGGACGAAACAGC [GAGCGC] | 2
GCUGUCACCGAGAAACUGUGAAGUAUAUCUUAAACCUGGGCACUUAAAAGAUAUAUGGAGUUAGUAGUGCAACCUGCUCGGUCUGAUGAGUCCCCCCUAGGACGAAACAGC [CCCCUA] | 2
GCUGUCACCGAGAAACUGUGAAGUAUAUCUUAAACCUGGGCACUUAAAAGAUAUAUGGAGUUAGUAGUGCAACCUGCUCGGUCUGAUGAGUCCGACAAGGGACGAAACAGC [GACAAG] | 2
GCUGUCACCGAGAAACUGUGAAGUAUAUCUUAAACCUGGGCACUUAAAAGAUAUAUGGAGUUAGUAGUGCAACCUGCUCGGUCUGAUGAGUCCUUUGUUGGACGAAACAGC [UUUGUU] | 3
GCUGUCACCGAGAAACUGUGAAGUAUAUCUUAAACCUGGGCACUUAAAAGAUAUAUGGAGUUAGUAGUGCAACCUGCUCGGUCUGAUGAGUCCGACGGAGGACGAAACAGC [GACGGA] | 3
GCUGUCACCGAGAAACUGUGAAGUAUAUCUUAAACCUGGGCACUUAAAAGAUAUAUGGAGUUAGUAGUGCAACCUGCUCGGUCUGAUGAGUCCGUCACUGGACGAAACAGC [GUCACU] | 3

Band assignment needed for GCUGUCACCGAGAAACUGUGAAGUAUAUCUUAAACCUGGGCACUUAAAAGAUAUAUGGAGUUAGUAGUGCAACCUGCUCGGUCUGAUGAGUCCAAGAGGGGACGAAACAGC [AAGAGG] please. 1

# bin label for GCUGUCACCGAGAAACUGUGAAGUAUAUCUUAAACCUGGGCACUUAAAAGAUAUAUGGAGUUAGUAGUGCAACCUGCUCGGUCUGAUGAGUCCAAUAGAGGACGAAACAGC [AAUAGA] 1

Determine which band this variant sits in: GCUGUCACCGAGAAACUGUGAAGUAUAUCUUAAACCUGGGCACUUAAAAGAUAUAUGGAGUUAGUAGUGCAACCUGCUCGGUCUGAUGAGUCCUGGCAUGGACGAAACAGC [UGGCAU] 3

Each variant maps to one class by FACS-Seq fitted mean (log10). Which class for GCUGUCACCGAGAAACUGUGAAGUAUAUCUUAAACCUGGGCACUUAAAAGAUAUAUGGAGUUAGUAGUGCAACCUGCUCGGUCUGAUGAGUCCUAGGAAGGACGAAACAGC [UAGGAA] ? 2

Hi, small favor: classify GCUGUCACCGAGAAACUGUGAAGUAUAUCUUAAACCUGGGCACUUAAAAGAUAUAUGGAGUUAGUAGUGCAACCUGCUCGGUCUGAUGAGUCCGAAAAGGGACGAAACAGC [GAAAAG] by its FACS-Seq fitted mean (log10) when you get a moment. 2
